Hey, just so you know, these numbers are from patent CN105348390A.

- system: T1, 重组huPCSK9-his (人PCSK9, C端His-tag) (human, UniProt Q8NBP7 54-692)
- T1 construct: Expressed in HEK293 cells; not shown: C-terminal His-tag
- T1 sequence (Q8NBP7 other isoform, or with tags, fused parts or gaps): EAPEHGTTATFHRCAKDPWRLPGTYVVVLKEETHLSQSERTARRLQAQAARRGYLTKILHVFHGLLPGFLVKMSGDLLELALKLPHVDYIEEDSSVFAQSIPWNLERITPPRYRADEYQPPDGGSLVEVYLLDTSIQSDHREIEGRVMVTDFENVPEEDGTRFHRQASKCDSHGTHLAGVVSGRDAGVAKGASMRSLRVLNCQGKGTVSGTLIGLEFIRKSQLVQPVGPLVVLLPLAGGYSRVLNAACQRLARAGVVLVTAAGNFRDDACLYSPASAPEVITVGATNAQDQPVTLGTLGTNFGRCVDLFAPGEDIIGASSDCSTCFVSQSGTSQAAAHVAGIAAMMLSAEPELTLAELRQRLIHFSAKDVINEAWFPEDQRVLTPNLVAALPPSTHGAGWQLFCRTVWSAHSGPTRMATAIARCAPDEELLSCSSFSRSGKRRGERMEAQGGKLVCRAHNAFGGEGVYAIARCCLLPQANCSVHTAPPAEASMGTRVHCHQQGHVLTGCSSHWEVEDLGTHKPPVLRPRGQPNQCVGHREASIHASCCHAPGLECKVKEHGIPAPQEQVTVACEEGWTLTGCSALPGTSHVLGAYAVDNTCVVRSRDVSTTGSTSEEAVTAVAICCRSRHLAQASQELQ
- method.notes: SPR, Biacore 3000, antibody captured by anti-human Fc on CM5, huPCSK9 as analyte
reported.property: pKd
Remember the convention: pKd equals -log10 of concentration in molar.

*Q* Which pKd value belongs to H8F4-IgG4 (antibody, V domains shown) VH: QVQLVQSGAEVKKPGASVKVSCKASGYALYNYGISWVRQAPGQGLEWMGWVSFYNGNTNYAQKLQGRGTMTTDPSTSTAYMELRSLRSDDTAVYYCARGYVMDIWGQGTTVTVSS VL: DIQMTQSPSSLSASVGDRVTITCRASQSINNWLDWYQQKPGKAPKLLIYAASTRPSGVPSRFSGSGSGTDFTLTISSLQPEDFATYYCQQDQDIPPTFGQGTKVEIKR ?
*A* 10.17
